Would you mind telling me the reported self-splicing fitness (ln) of each entry?
Assay: self-splicing fitness, log relative to wild type (ln ratio); higher = more splicing; Tetrahymena group I intron in knt gene, E. coli kanamycin selection, DiMSum; sequences stand for … in CUCUCU…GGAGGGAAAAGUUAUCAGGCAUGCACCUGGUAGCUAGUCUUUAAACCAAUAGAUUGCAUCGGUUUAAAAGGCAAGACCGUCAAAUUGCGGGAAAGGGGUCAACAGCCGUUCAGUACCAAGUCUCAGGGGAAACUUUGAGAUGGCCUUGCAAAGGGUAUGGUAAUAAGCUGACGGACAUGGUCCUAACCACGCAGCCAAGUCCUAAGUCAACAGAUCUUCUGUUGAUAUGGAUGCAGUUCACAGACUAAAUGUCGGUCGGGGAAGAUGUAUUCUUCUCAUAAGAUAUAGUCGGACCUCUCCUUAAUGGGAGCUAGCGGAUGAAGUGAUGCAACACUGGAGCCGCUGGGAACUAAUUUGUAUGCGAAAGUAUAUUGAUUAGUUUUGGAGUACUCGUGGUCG;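 note: selection with 25 µg/mL kanamycin versus none on LB agar overnight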
Conditions: 37 °C
Field format: numeric only.

### Prompt Look at this sequence and give its reported self-splicing fitness (ln). AAACAGCAAUAUUACGAUCG
### Response -0.0291

### Prompt Look at this sequence and give its reported self-splicing fitness (ln). GUCAAGCAAUAUUACGAGUG
### Response -1.69

### Prompt Look at this sequence and give its reported self-splicing fitness (ln). AAAAAGCAAUAUUACGGUGU
### Response -1.39

### Prompt Look at this sequence and give its reported self-splicing fitness (ln). AACAAGCAAUAUUACGUCCA
### Response -0.468

### Prompt Look at this sequence and give its reported self-splicing fitness (ln). UCAAAGCAAUAUUACGCAGG
### Response -2.2

### Prompt Look at this sequence and give its reported self-splicing fitness (ln). GACCAGCAAUAUUACGGGCC
### Response -2.26

### Prompt Look at this sequence and give its reported self-splicing fitness (ln). AGUGAGCAAUAUUACGUUAA
### Response -1.57

### Prompt Look at this sequence and give its reported self-splicing fitness (ln). AUCUAGCAAUAUUACGCGCG
### Response -0.257

###

Would you mind telling me the reported self-splicing fitness (ln) of each entry?
Test: self-splicing fitness, log relative to wild type (ln ratio); higher = more splicing; Tetrahymena group I intron in knt gene, E. coli kanamycin selection, DiMSum; sequences stand for … in CUCUCU…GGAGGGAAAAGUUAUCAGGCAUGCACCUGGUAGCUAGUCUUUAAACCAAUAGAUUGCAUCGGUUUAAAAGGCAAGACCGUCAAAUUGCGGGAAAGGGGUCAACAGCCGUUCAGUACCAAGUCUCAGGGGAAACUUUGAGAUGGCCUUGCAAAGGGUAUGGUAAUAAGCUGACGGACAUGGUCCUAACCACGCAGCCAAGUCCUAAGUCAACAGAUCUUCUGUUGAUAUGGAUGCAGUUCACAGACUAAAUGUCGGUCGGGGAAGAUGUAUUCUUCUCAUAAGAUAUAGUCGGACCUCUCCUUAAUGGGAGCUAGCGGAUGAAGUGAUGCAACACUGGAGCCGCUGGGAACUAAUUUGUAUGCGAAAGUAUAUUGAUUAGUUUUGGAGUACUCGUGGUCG
Settings: 30 °C
Field format: numeric only.

### Prompt Look at this sequence and give its reported self-splicing fitness (ln). AUAUAGCAAUAUUACGGCCA
### Response -1.28

### Prompt Look at this sequence and give its reported self-splicing fitness (ln). UGCAAGCAAUAUUACGCGAA
### Response -2.03

### Prompt Look at this sequence and give its reported self-splicing fitness (ln). CGGCAGCAAUAUUACGUGAC
### Response -3.9

### Prompt Look at this sequence and give its reported self-splicing fitness (ln). UGCAAGCAAUAUUACGCCUC
### Response -1.98

### Prompt Look at this sequence and give its reported self-splicing fitness (ln). AACUAGCAAUAUUACGUAUC
### Response -3.83

### Prompt Look at this sequence and give its reported self-splicing fitness (ln). GUCCAGCAAUAUUACGAUCA
### Response -0.611

### Prompt Look at this sequence and give its reported self-splicing fitness (ln). UUAAAGCAAUAUUACGGGCA
### Response -0.351

### Prompt Look at this sequence and give its reported self-splicing fitness (ln). AUAUAGCAAUAUUACGGACC
### Response -0.93

### Prompt Look at this sequence and give its reported self-splicing fitness (ln). UCACAGCAAUAUUACGGGAG
### Response -3.75

### Prompt Look at this sequence and give its reported self-splicing fitness (ln). CCAGAGCAAUAUUACGCACU
### Response -2.9

### Prompt Look at this sequence and give its reported self-splicing fitness (ln). CGAAAGCAAUAUUACGUUGC
### Response -4.09

### Prompt Look at this sequence and give its reported self-splicing fitness (ln). UCUAAGCAAUAUUACGUCGU
### Response -1.19

### Prompt Look at this sequence and give its reported self-splicing fitness (ln). UCGAAGCAAUAUUACGACAA
### Response -1.59

### Prompt Look at this sequence and give its reported self-splicing fitness (ln). CCCUAGCAAUAUUACGAGGA
### Response -1.66

### Prompt Look at this sequence and give its reported self-splicing fitness (ln). CAGUAGCAAUAUUACGCUAG
### Response -2.14

### Prompt Look at this sequence and give its reported self-splicing fitness (ln). UCCUAGCAAUAUUACGCUUG
### Response -3.79

###

Would you mind telling me the reported self-splicing fitness (ln) of each entry?
Assay: self-splicing fitness, log relative to wild type (ln ratio); higher = more splicing; Tetrahymena group I intron in knt gene, E. coli kanamycin selection, DiMSum; sequences stand for … in CUCUCU…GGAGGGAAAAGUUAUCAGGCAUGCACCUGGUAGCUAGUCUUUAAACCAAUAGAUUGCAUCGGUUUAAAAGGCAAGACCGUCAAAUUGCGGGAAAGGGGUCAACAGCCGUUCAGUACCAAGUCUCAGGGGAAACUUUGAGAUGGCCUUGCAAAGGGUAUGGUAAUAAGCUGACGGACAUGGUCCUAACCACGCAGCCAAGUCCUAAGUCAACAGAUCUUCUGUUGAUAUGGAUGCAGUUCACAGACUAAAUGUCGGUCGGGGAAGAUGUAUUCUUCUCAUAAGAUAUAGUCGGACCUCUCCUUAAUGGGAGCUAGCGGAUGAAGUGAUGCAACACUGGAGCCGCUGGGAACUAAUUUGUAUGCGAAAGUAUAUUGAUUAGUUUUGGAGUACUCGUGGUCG
Conditions: 37 °C
Field format: numeric only.

### Prompt Look at this sequence and give its reported self-splicing fitness (ln). UCACAGCAAUAUUACGACUA
### Response -0.431

### Prompt Look at this sequence and give its reported self-splicing fitness (ln). GAUUAGCAAUAUUACGGCGC
### Response 0.233

### Prompt Look at this sequence and give its reported self-splicing fitness (ln). AACGAGCAAUAUUACGGCUG
### Response -0.126

### Prompt Look at this sequence and give its reported self-splicing fitness (ln). AGAUAGCAAUAUUACGCUCC
### Response 0.0911

### Prompt Look at this sequence and give its reported self-splicing fitness (ln). AGUAAGCAAUAUUACGUCAU
### Response -2.12

### Prompt Look at this sequence and give its reported self-splicing fitness (ln). AUUGAGCAAUAUUACGGGCA
### Response -2.3

### Prompt Look at this sequence and give its reported self-splicing fitness (ln). UUAUAGCAAUAUUACGAUAU
### Response -0.578

### Prompt Look at this sequence and give its reported self-splicing fitness (ln). GUAAAGCAAUAUUACGAAUA
### Response -0.495

### Prompt Look at this sequence and give its reported self-splicing fitness (ln). CCAGAGCAAUAUUACGCCCU
### Response -2.07

### Prompt Look at this sequence and give its reported self-splicing fitness (ln). GCUCAGCAAUAUUACGCACA
### Response 0.0263

### Prompt Look at this sequence and give its reported self-splicing fitness (ln). ACGGAGCAAUAUUACGACCU
### Response -1.34

### Prompt Look at this sequence and give its reported self-splicing fitness (ln). AUCAAGCAAUAUUACGUAAA
### Response -1.11

### Prompt Look at this sequence and give its reported self-splicing fitness (ln). UCUCAGCAAUAUUACGCCUC
### Response -2.27

### Prompt Look at this sequence and give its reported self-splicing fitness (ln). ACUAAGCAAUAUUACGGAUC
### Response -1.3

### Prompt Look at this sequence and give its reported self-splicing fitness (ln). GUCAAGCAAUAUUACGGGCC
### Response -2.77

### Prompt Look at this sequence and give its reported self-splicing fitness (ln). GACAAGCAAUAUUACGCGGA
### Response -1.25

Where do these numbers come from? They come from the supplement of paper PMC7877785.
